target: full-length beta-Catenin (Uniprot ID P35222) (Homo sapiens, UniProt P35222)
Construct: 10 nM full-length beta-Catenin (Uniprot ID P35222)
Sequence (P35222 1-781): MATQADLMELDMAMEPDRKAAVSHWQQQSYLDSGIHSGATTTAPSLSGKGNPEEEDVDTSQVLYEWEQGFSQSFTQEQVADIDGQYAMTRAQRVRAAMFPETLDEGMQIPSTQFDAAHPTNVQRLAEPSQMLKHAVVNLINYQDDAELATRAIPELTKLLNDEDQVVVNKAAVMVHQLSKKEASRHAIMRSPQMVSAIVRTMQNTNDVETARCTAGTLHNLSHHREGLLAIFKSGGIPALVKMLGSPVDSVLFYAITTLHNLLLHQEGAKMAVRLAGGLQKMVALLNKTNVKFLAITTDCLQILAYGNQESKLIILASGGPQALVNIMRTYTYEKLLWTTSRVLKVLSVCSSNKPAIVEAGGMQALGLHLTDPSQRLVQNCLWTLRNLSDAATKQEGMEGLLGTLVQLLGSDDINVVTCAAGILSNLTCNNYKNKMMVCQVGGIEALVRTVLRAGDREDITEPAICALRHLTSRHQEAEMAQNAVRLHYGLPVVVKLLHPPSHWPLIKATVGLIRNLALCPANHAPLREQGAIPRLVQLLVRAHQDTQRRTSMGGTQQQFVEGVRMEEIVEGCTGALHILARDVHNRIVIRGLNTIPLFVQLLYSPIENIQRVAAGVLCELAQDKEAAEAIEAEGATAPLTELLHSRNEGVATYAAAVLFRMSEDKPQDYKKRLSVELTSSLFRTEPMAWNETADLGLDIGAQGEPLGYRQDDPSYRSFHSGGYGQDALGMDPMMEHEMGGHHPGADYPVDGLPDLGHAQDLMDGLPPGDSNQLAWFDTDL
methodSummary: Fluorescence polarization IC50 (beta-catenin / 5FAM-TCF4 10-53 competition)
Assay type: binding
statedConditions: fluorescence polarization; read-out: beta-Catenin FP IC50
experimentalReadout: log10 IC50 (log10 of the value in nM)
Could you please treat all values as log10 of IC50 in nM?

As a guide, the following entries are already answered.
{"compound": "CC(=O)N1CCC[C@]12CC=CCCCC1(CCCC=CCCCOC(=O)N3CC[C@@](C(=O)N[C@@H](Cc4ccsc4)C(=O)N[C@@H](Cc4csc5ccccc45)C(=O)N[C@@H](CCC(N)=O)C(N)=O)(C3)NC(=O)[C@H](CC(N)=O)NC(=O)[C@H](Cc3ccccc3)NC(=O)[C@H](C)NC(=O)[C@H](C)NC(=O)[C@H](Cc3c(F)c(F)c(F)c(F)c3F)NC(=O)[C@H](CC(=O)O)NC1=O)NC(=O)[C@H](CC(C)(C)C)NC(=O)[C@H](CC(=O)O)NC2=O (some centres unmarked)", "target": "full-length beta-Catenin (Uniprot ID P35222) (Homo sapiens, UniProt P35222)", "experimentalReadout": "log10 IC50", "measured": 1.91}
{"compound": "CC(=O)N1CCC[C@]12CC=CCCCC1(CCCC=CCCCCCC[C@@](C)(C(=O)N[C@@H](Cc3cccc(F)c3)C(=O)N[C@@H](Cc3c[nH]c4ccccc34)C(=O)N[C@@H](CCC(N)=O)C(N)=O)NC(=O)[C@H](CCC(N)=O)NC(=O)[C@H](Cc3cccs3)NC(=O)[C@H](C)NC(=O)[C@H](C)NC(=O)[C@H](CCC(=O)O)NC(=O)[C@H](CC(=O)O)NC1=O)NC(=O)[C@H](C)NC(=O)[C@H](CC(=O)O)NC2=O (some centres unmarked)", "target": "full-length beta-Catenin (Uniprot ID P35222) (Homo sapiens, UniProt P35222)", "experimentalReadout": "log10 IC50", "measured": 3.57}
{"compound": "CC(=O)N1CCC[C@]12CC=CCCCC1(CCCC=CCCCCCC[C@@](C)(C(=O)N[C@@H](Cc3ccccc3)C(=O)N[C@@H](Cc3csc4ccccc34)C(=O)N[C@@H](CCC(N)=O)C(N)=O)NC(=O)[C@H](CC(N)=O)NC(=O)[C@H](Cc3ccccc3)NC(=O)[C@H](C)NC(=O)[C@H](C)NC(=O)[C@H](CC(=O)O)NC(=O)[C@H](CC(=O)O)NC1=O)NC(=O)[C@H](CC(C)C)NC(=O)[C@H](CC(=O)O)NC2=O (some centres unmarked) [I-562]", "target": "full-length beta-Catenin (Uniprot ID P35222) (Homo sapiens, UniProt P35222)", "experimentalReadout": "log10 IC50", "measured": 1.71}

input: Query: log10 IC50; subject: CC(=O)N1CCC[C@]12CC=CCCCC1(CCCC=CCCCOC(=O)N3CC[C@@](C(=O)N[C@@H](Cc4ccsc4)C(=O)N[C@@H](Cc4csc5ccccc45)C(=O)N[C@@H](CCC(N)=O)C(N)=O)(C3)NC(=O)[C@H](Cc3c[nH]c4ccccc34)NC(=O)[C@H](Cc3ccccc3)NC(=O)[C@H](C)NC(=O)[C@H](C)NC(=O)[C@H]([C@@H](C)O)NC(=O)[C@H](CC(N)=O)NC1=O)NC(=O)[C@H](CC(C)(C)C)NC(=O)[C@H](CC(=O)O)NC2=O (some centres unmarked)
output: 3.64

input: Do the same for CC(=O)N1CCC[C@]12CC=CCCCC1(CCCC=CCCCCCC[C@@](C)(C(=O)N[C@@H](Cc3ccccc3)C(=O)N[C@@H](Cc3csc4ccccc34)C(=O)N[C@@H](CCC(N)=O)C(N)=O)NC(=O)[C@H](CC(N)=O)NC(=O)[C@H](Cc3ccccc3)NC(=O)[C@H](C)NC(=O)[C@H](C)NC(=O)[C@H](CCC(=O)O)NC(=O)[C@H](CC(=O)O)NC1=O)NC(=O)[C@H](CC1CCCCC1)NC(=O)[C@H](CC(=O)O)NC2=O (some centres unmarked) [I-619] please
output: 1.64
